Where do the numbers come from? From the Immune Epitope Database (IEDB).

# Experimental system: HLA-B*39:01
# Assay explanation: IEDB peptide-MHC binding, purified MHC/competitive/fluorescence; filed as Kd, often an IC50 or EC50 that approximates it; bounds were set here for any values at or beyond the usual limits of such assays
# Condition label: source organism: Homo sapiens
pKd: −log10 of the molar value.
Recorded metric: pKd

Fill in the blank: the reported pKd of `VTENKKIQY` is ____.
≤ 4.70

----------
# Experimental system: HLA-A*01:01
# Assay explanation: IEDB peptide-MHC binding, purified MHC/direct/fluorescence; filed as Kd, often an IC50 or EC50 that approximates it; bounds were set here for any values at or beyond the usual limits of such assays
# Condition label: source organism: Bacillus anthracis
pKd: −log10 of the molar value.
Recorded metric: pKd

What value of pKd has been reported for the following sequence? `TVIRFWHAM`
≤ 4.70
